Entry source: patent US4202979A

System: prolactin
Test: inhibition of serum prolactin in reserpine-pretreated male rats
Type: in vivo, rat (Sprague-Dawley)
Conditions: Rattus norvegicus, ip, 1 h, read-out: Percent Inhibition of Serum Prolactin
Please mark rule met if the recorded inhibition at 0.05 mg/kg is equal to or greater than 90%, and rule not met if it falls below.

molecule | label value
CCCN1C[C@H](COC)C[C@@H]2c3cccc4[nH]cc(c34)C[C@H]21 | rule met
CCCN1C[C@H](CSC)C=C2c3cccc4[nH]cc(c34)C[C@H]21 | rule not met

Switching to the query record.
Check the entry CSC[C@@H]1C[C@@H]2c3cccc4[nH]cc(c34)C[C@H]2N(C)C1 [reference compound] : does inhibition at 0.05 mg/kg equal or exceed 90%? rule not met

---

Provide the reported Ki of each item.
Target: dopamine receptors
Assay: inhibition of high affinity binding of tritiated dopamine to dopamine receptors in membranes from striatal synaptosomes of bovine brain
Details: Table 3; tritiated dopamine; striatal synaptosomes of bovine brain
Answers are plain numbers, in nM.

Each of the following entries comes with a recorded value; kindly state Ki for each.
1. COC[C@@H]1C[C@@H]2c3cccc4[nH]cc(c34)C[C@H]2N(C)C1 [reference compound]
2. CCCN1C[C@H](CSC)C=C2c3cccc4[nH]cc(c34)C[C@H]21
3. CSC[C@@H]1C[C@@H]2c3cccc4[nH]c(Cl)c(c34)C[C@H]2N(C)C1 [reference compound]
4. CCCN1C[C@H](CSC)C[C@@H]2c3cccc4[nH]cc(c34)C[C@H]21

1: 75; 2: 2; 3: 6; 4: 3

Each of the following entries comes with a recorded value; kindly state Ki for each.
1. CCCN1CC(CSC)=C[C@@H]2c3cccc4[nH]cc(c34)C[C@H]21
2. CSC[C@@H]1C[C@@H]2c3cccc4[nH]cc(c34)C[C@H]2N(C)C1 [reference compound]
3. CCN1C[C@H](CSC)C[C@@H]2c3cccc4[nH]cc(c34)C[C@H]21

1: 2; 2: 13; 3: 3.5

Each of the following entries comes with a recorded value; kindly state Ki for each.
1. CCCN1C[C@H](CSC)C[C@@H]2c3cccc4[nH]c(Br)c(c34)C[C@H]21
2. CCCN1C[C@H](COC)C[C@@H]2c3cccc4[nH]cc(c34)C[C@H]21
3. C=CCN1C[C@H](CSC)C[C@@H]2c3cccc4[nH]cc(c34)C[C@H]21
4. CSC[C@@H]1C=C2c3cccc4[nH]cc(c34)C[C@H]2N(C)C1 [reference compound]

1. 3
2. 10
3. 5
4. 6

---

Test system: 6-hydroxydopamine-lesioned rats (dopamine agonist activity)
Assay: rat turning test (turning behavior contralateral to lesion in 6-hydroxydopamine-lesioned rats)
Assay type: in vivo
Conditions: IP dose 1 mg/kg; Table I
Provide the reported Latency of Effect of each item.
Numbers only, in min.

Example entries and their recorded answers appear below.
compound | measured parameter | unit abbreviation | recorded measurement
CCCN1C[C@H](COC)C[C@@H]2c3cccc4[nH]cc(c34)C[C@H]21 | Latency of Effect | min | 6
CCCN1C[C@H](CSC)C[C@@H]2c3cccc4[nH]c(Br)c(c34)C[C@H]21 | Latency of Effect | min | 5

# Latency of Effect lookup, item CCCN1C[C@H](C[S+](C)[O-])C[C@@H]2c3cccc4[nH]cc(c34)C[C@H]21 (stereo partly drawn) 7

---

Tested on: 6-hydroxydopamine-lesioned rats (dopamine agonist activity)
Experiment: rat turning test (turning behavior contralateral to lesion in 6-hydroxydopamine-lesioned rats)
Format: in vivo
Details: IP dose 1 mg/kg; Table I
measured parameter: Latency of Effect (min)
Answers are plain numbers, in min.

Example entries and their recorded answers appear below.
structure smiles | unit abbreviation | Latency of Effect
CCCN1CC(CSC)=C[C@@H]2c3cccc4[nH]cc(c34)C[C@H]21 | min | 4
CCN1C[C@H](CSC)C[C@@H]2c3cccc4[nH]cc(c34)C[C@H]21 | min | 9

Proceeding to the next compound to report its Latency of Effect.
# Latency of Effect lookup, item CCCN1C[C@H](CSC)C=C2c3cccc4[nH]cc(c34)C[C@H]21 4

---

System: prolactin
Experiment: inhibition of serum prolactin in reserpine-pretreated male rats
Format: in vivo, rat (Sprague-Dawley)
Conditions: Rattus norvegicus, ip, 1 h, read-out: Percent Inhibition of Serum Prolactin
measured parameter: inhibition at 0.05 mg/kg (%)
One number for each entry, in %.

Each of the following entries comes with a recorded value; kindly state inhibition at 0.05 mg/kg for each.
1. CCCN1CC(CSC)=C[C@@H]2c3cccc4[nH]cc(c34)C[C@H]21
2. CCN1C[C@H](CSC)C[C@@H]2c3cccc4[nH]cc(c34)C[C@H]21
3. CCCN1C[C@H](C[S+](C)[O-])C[C@@H]2c3cccc4[nH]cc(c34)C[C@H]21 (stereo partly shown)
4. CCCN1C[C@H](CSC)C[C@@H]2c3cccc4[nH]c(Br)c(c34)C[C@H]21

91
91
92
89
